Target: recombinant human NK3 receptor (Homo sapiens)
Construct: expressed in transfected cells; host or cells: HEK293 cells, transient expression; membrane preparation
Sequence (P29371 1-465): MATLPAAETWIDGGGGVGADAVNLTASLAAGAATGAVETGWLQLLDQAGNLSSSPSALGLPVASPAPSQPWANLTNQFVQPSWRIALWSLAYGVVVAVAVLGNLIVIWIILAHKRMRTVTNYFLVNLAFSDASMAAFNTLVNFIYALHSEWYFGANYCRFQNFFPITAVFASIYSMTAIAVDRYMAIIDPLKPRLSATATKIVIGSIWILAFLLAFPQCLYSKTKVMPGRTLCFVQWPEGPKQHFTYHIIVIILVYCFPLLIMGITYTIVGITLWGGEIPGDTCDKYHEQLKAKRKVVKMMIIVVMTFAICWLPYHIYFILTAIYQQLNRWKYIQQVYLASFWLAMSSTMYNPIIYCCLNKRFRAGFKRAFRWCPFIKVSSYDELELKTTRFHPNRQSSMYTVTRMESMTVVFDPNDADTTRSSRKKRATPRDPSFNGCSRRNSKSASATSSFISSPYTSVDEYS
Test: [3H]SR142801 competition binding assay
Settings: [3H]SR142801, membranes of HEK293 cells transiently expressing recombinant human NK3 receptor; read-out: hNK3 Ki
Measurement type: pKi
// pKi is dimensionless: -log10 of concentration (M)

{"Compound": "CN(Cc1ccc(Cl)cc1)C(=O)C(CCN1CCC(N2CCCC2=O)CC1)c1ccc(F)cc1 (stereo not shown) [Example 111]", "Measurement type": "pKi", "Measured result": 6.39}
{"Compound": "CS(=O)(=O)NC1CCN(CCC(C(=O)NCc2ccc(Cl)c(C(F)(F)F)c2)c2ccc(Cl)c(Cl)c2)CC1 (stereo not shown) [Example 36]", "Measurement type": "pKi", "Measured result": 6.45}
{"Compound": "CC(=O)N(C1CC1)C1CCN(CCC(C)(C(=O)N[C@@H](CO)c2ccc(Cl)cc2)c2ccc(Cl)c(Cl)c2)CC1 (single isomer, unassigned; diastereoisomer 2) [Example 143]", "Measurement type": "pKi", "Measured result": 7.06}

Please find the next compound below.
Ask: Which pKi reading was recorded for the compound CC(CCN1CCC(N2CCCC2=O)CC1)(C(=O)NC(c1ccccc1)C(F)(F)F)c1ccc(Cl)c(Cl)c1 (stereo not shown) [Example 95] ?
Result: 8.33

====

target: recombinant human NK3 receptor (Homo sapiens, UniProt P29371); construct: expressed in transfected cells; host or cells: HEK293 cells, transient expression; membrane preparation; test: [3H]SR142801 competition binding assay; details: [3H]SR142801, membranes of HEK293 cells transiently expressing recombinant human NK3 receptor; read-out: hNK3 Ki
Measurement type: Ki (nM)
Answer format: numeric, nM implied, no suffix.

Consider the worked cases shown below.
{"Compound": "CN(Cc1cccc(Cl)c1)C(=O)C(CCN1CCC(NS(C)(=O)=O)CC1)c1ccc(Cl)c(Cl)c1 (stereo not drawn)", "Ki / nM": 213}
{"Compound": "CN(Cc1ccc(C(F)(F)F)cc1)C(=O)C(C)(CCN1CCC(N2CCCC2=O)CC1)c1ccc(Cl)c(Cl)c1 (stereo not drawn)", "Ki / nM": 1.8}
{"Compound": "CCN(C1CCN(CCC(C)(C(=O)N[C@@H](CO)c2ccc(Cl)c(Cl)c2)c2ccc(Cl)c(Cl)c2)CC1)S(C)(=O)=O (single isomer, unassigned; diastereoisomer 1)", "Ki / nM": 1.5}

Ask: For the compound shown here, CCN(C1CCN(CCC(C)(C(=O)N(C)Cc2ccc(C(F)(F)F)cc2)c2ccc(Cl)c(Cl)c2)CC1)S(C)(=O)=O (stereo not drawn) , give the reported Ki.
Result: 1.7

Ask: Give the measured Ki of CCN(C1CCN(CCC(C)(C(=O)N(C)Cc2cccc(Cl)c2)c2ccc(Cl)c(Cl)c2)CC1)S(C)(=O)=O (stereo not drawn) .
Result: 3.9

Ask: What measured Ki goes with Cc1ccc(CN(C)C(=O)C(CCN2CCC(NS(C)(=O)=O)CC2)c2ccc(Cl)c(Cl)c2)cc1 (stereo not drawn) ?
Result: 92.9

====

target: recombinant human NK3 receptor (Homo sapiens, UniProt P29371); construct: expressed in transfected cells; host or cells: HEK293 cells, transient expression; membrane preparation; test: [3H]SR142801 competition binding assay; settings: representative compounds; [3H]SR142801, HEK293 membranes, human NK3 receptor; read-out: Ki NK3 h
Counter-ions that a name gives are not always drawn.
Entries and their measured pKi follow.
Worth noting: pKi values are minus log10 of concentrations stated in mol/L.

See these solved cases before continuing.
{"Compound": "CCN(C1CCN(CCC(C)(C(=O)N(C)Cc2ccc(Cl)c(Cl)c2)c2ccc(Cl)c(Cl)c2)CC1)S(C)(=O)=O (stereo not drawn)", "Measured result": 8.92}
{"Compound": "CN(Cc1ccc(F)c(C(F)(F)F)c1)C(=O)C(C)(CCN1CCC(N(C)S(C)(=O)=O)CC1)c1ccc(Cl)c(Cl)c1 (stereo not drawn)", "Measured result": 8.68}

// next entry
Ask: Reported pKi, compound CN(Cc1ccc(F)c(C(F)(F)F)c1)C(=O)C(C)(CCN1CCC(N2CCCC2=O)CC1)c1ccc(Cl)c(Cl)c1 (single isomer, unassigned) [Example 119, hydrochloride] : ____
Result: 9.10

====

target: recombinant human NK3 receptor (Homo sapiens); construct: expressed in transfected cells; host or cells: HEK293 cells, transient expression; membrane preparation; test: [3H]SR142801 competition binding assay; conditions: [3H]SR142801, membranes of HEK293 cells transiently expressing recombinant human NK3 receptor; read-out: hNK3 Ki
pKi: −log10 of the molar value.
param class (str): category from pKi; see ranges interval 1 (below 7), interval 2 (7 to below 8), interval 3 (8 or more)

Ask: Which category does the recorded pKi put CN(Cc1ccc(C(F)(F)F)c(F)c1)C(=O)C(C)(CCN1CCC(NS(C)(=O)=O)CC1)c1ccc(Cl)c(Cl)c1 (single isomer, unassigned) [Example 124] in?
Result: interval 2

====

Biological target: recombinant human NK3 receptor (Homo sapiens, UniProt P29371)
Construct: expressed in transfected cells; host or cells: HEK293 cells, transient expression; membrane preparation
Assay: [3H]SR142801 competition binding assay
Conditions: [3H]SR142801, membranes of HEK293 cells transiently expressing recombinant human NK3 receptor; read-out: hNK3 Ki
Method: [^3H]SR142801 Competition Binding Assay hNK3 receptor binding experiment were performed using [^3H]SR142801 (Catalog No. TRK1035, specific activity: 74.0 Ci/mmol, Amersham, GE Healthcare UK limited, Buckinghamshire, UK) and membrane isolated from HEK293 cells transiently expressing recombinant human NK3 receptor. […] Nonspecific binding was measured in the presence of 10 μM SB222200 for both radioligands. […]
Measurement type: pKi
To interpret pKi, take it as minus log10 of a concentration measured in moles per litre.

{"Compound": "CN(Cc1ccc(C(F)(F)F)c(F)c1)C(=O)C(F)(CCN1CCC(NS(C)(=O)=O)CC1)c1ccc(Cl)c(Cl)c1 (stereo not drawn) [Example 61]", "Measured result": 7.10}
{"Compound": "COCCN(C(C)=O)C1CCN(CCC(C)(C(=O)N[C@@H](CO)c2ccc(F)cc2)c2ccc(Cl)c(Cl)c2)CC1 (single isomer, unassigned; diastereoisomer 1) [Example 146]", "Measured result": 9.15}

Now for a further compound.
Ask: # pKi lookup, item CN(C1CCN(CCC(C)(C(=O)NCc2ccccc2)c2ccc(Cl)c(Cl)c2)CC1)S(C)(=O)=O (stereo not drawn) [Example 52]
Result: 7.19

====

target: recombinant human NK3 receptor (Homo sapiens); construct: expressed in transfected cells; host or cells: HEK293 cells, transient expression; membrane preparation; assay: [3H]SR142801 competition binding assay; conditions: [3H]SR142801, membranes of HEK293 cells transiently expressing recombinant human NK3 receptor; read-out: hNK3 Ki
Please use the following Ki ranges when assigning a class: lo: < 6 nM; mid: ≥ 6 nM and < 100 nM; hi: ≥ 100 nM

Solved cases below.
{"Compound": "CC(=O)N(C1CC1)C1CCN(CCC(C)(C(=O)N[C@@H](CO)c2ccc(F)cc2)c2ccc(Cl)c(Cl)c2)CC1 (single isomer, unassigned; diastereoisomer 1) [Example 140]", "Class": "mid"}
{"Compound": "CN(Cc1cccc(F)c1)C(=O)C(CCN1CCC(NS(C)(=O)=O)CC1)c1ccc(Cl)c(Cl)c1 (stereo not shown) [Example 43]", "Class": "hi"}
{"Compound": "CN(Cc1ccc(F)c(C(F)(F)F)c1)C(=O)C(C)(CCN1CCC(N2CCCC2=O)CC1)c1ccc(Cl)c(Cl)c1 (stereo not shown) [Example 86]", "Class": "lo"}
{"Compound": "CC(=O)N(C)C1CCN(CCC(C)(C(=O)N[C@H](CO)c2ccccc2)c2ccc(Cl)c(Cl)c2)CC1 (stereo partly shown) [Example 133]", "Class": "hi"}
{"Compound": "CCCN(C(C)=O)C1CCN(CCC(C)(C(=O)N[C@@H](CC)c2ccccc2)c2ccc(Cl)c(Cl)c2)CC1 (stereo partly shown) [Example 164]", "Class": "lo"}
{"Compound": "CC(=O)NC1CCN(CCC(C)(C(=O)N[C@@H](CO)c2ccc(F)cc2)c2ccc(Cl)c(Cl)c2)CC1 (single isomer, unassigned; diastereoisomer 1) [Example 154]", "Class": "hi"}
{"Compound": "CN(Cc1ccc(Cl)cc1)C(=O)C(CCN1CCC(N2CCCC2=O)CC1)c1ccc(Cl)cc1Cl (stereo not shown) [Example 112]", "Class": "hi"}
{"Compound": "CC(=O)N(C)C1CCN(CCC(C)(C(=O)NCc2ccc(C(F)(F)F)c(F)c2)c2ccc(Cl)c(Cl)c2)CC1 (stereo not shown) [Example 99]", "Class": "lo"}

Ask: Please indicate the class for CC(=O)NC1CCN(CCC(C)(C(=O)N[C@@H](CO)c2ccc(Cl)cc2)c2ccc(Cl)c(Cl)c2)CC1 (single isomer, unassigned; diastereoisomer 1) [Example 156] based on its Ki.
Result: mid

Ask: State the class of the compound shown: COc1ccc(C(NC(=O)C(C)(CCN2CCC(NS(C)(=O)=O)CC2)c2ccc(Cl)c(Cl)c2)C2CC2)cc1 (stereo not shown) [Example 2]
Result: hi

Ask: Classify this compound: CCN(C1CCN(CCC(C)(C(=O)N(C)Cc2ccc(Cl)cc2)c2ccc(Cl)c(Cl)c2)CC1)S(C)(=O)=O (stereo not shown) [Example 72]
Result: lo

Ask: Into which bin does this compound go? CC(=O)N(C)C1CCN(CCC(C)(C(=O)N[C@H](CO)c2ccc(Cl)c(Cl)c2)c2ccc(Cl)c(Cl)c2)CC1 (single isomer, unassigned; diastereoisomer 2) [Example 110]
Result: hi

Ask: Kindly identify the class of CC[C@H](NC(=O)C(C)(CCN1CCC(N2CCCC2=O)CC1)c1ccc(Cl)c(Cl)c1)c1ccccc1 (stereo partly shown) [Example 127] .
Result: lo

Ask: Which band does COCCN(C(C)=O)C1CCN(CCC(C)(C(=O)N[C@@H](CO)c2ccc(F)cc2)c2ccc(Cl)c(Cl)c2)CC1 (single isomer, unassigned) [Example 150] fall in?
Result: lo

Ask: Kindly state the category for this compound: CC(CCN1CCC(NS(C)(=O)=O)CC1)(C(=O)NCc1ccc(Cl)c(Cl)c1)c1ccc(Cl)c(Cl)c1 (stereo not shown) [Example 11]
Result: mid

Ask: Which class is correct for the following compound? CC(CCN1CCC(NS(C)(=O)=O)CC1)(C(=O)NCc1ccc(Cl)c(C(F)(F)F)c1)c1ccc(Cl)c(Cl)c1 (stereo not shown) [Example 24]
Result: mid

Ask: Please let me know in which category the item CC(=O)N(C)C1CCN(CCC(C)(C(=O)N(C)Cc2ccc(Cl)cc2)c2ccc(Cl)c(Cl)c2)CC1 (stereo not shown) [Example 102] belongs.
Result: lo
